Test: Pharmacokinetic analysis of plasma motesanib concentrations (noncompartmental)
Type: in vivo, human
Details: human, plasma, po, 75 mg, Arm C, 75 mg BID 5 d on/2 d off; plasma, oral; read-out: Median Cmax
value-kind: Cmax (ng/mL)
Response body: numeric value in ng/mL, unit text excluded.

[ask] Given the compound CC1(C)CNc2cc(NC(=O)c3cccnc3NCc3ccncc3)ccc21 [Motesanib] , what is its reported Cmax?
[reply] 355

---

Experiment: Pharmacokinetic analysis of plasma motesanib concentrations (noncompartmental)
Format: in vivo, human
Details: human, plasma, oral, 75 mg, Arm B, 75 mg BID 2 wk on/1 wk off; read-out: Median Cmin (trough plasma concentration at 24 hours postdose)
value-kind: concentration at 24 h (ng/mL)
Response body: numeric value in ng/mL, unit text excluded.

[ask] Given the molecule `CC1(C)CNc2cc(NC(=O)c3cccnc3NCc3ccncc3)ccc21` , what is its reported concentration at 24 h?
[reply] 60
